Test system: Escherichia coli strain c-11
Assay: Intraperitoneal E. coli infection in mice: oral cephalosporin with or without oral lactoferrin (Example 3)
Type: in vivo
Settings: fraction of ED50 of antibiotic alone; lactoferrin 1 mg/mouse
Task for the reader: assign each of the following compounds its reported ED50s reduced by simultaneous administration of lactoferrin to.

Chemical Smiles: N[C@@H](C(=O)N[C@@H]1C(=O)N2C(C(=O)O)=C(Cl)CS[C@H]12)c1ccccc1
Experimental Result: 1/2
--
Chemical Smiles: C=CC1=C(C(=O)O)N2C(=O)[C@@H](NC(=O)/C(=N\OCC(=O)O)c3csc(N)n3)[C@H]2SC1
Experimental Result: 1/4
--
Chemical Smiles: CC1=C(C(=O)O)N2C(=O)[C@@H](NC(=O)[C@H](N)c3ccccc3)[C@H]2SC1
Experimental Result: 1/4

From here, focus on the item given below.
Consider `COC1=C(C(=O)O)N2C(=O)[C@@H](NC(=O)[C@H](N)C3=CCC=CC3)[C@H]2SC1` . Its measured ED50s reduced by simultaneous administration of lactoferrin to is 1/3
